Where do the numbers come from? From ChEMBL document CHEMBL5532651.

Tested on: CYP1A2 (Homo sapiens, UniProt P05177)
Sequence (P05177 whole entry): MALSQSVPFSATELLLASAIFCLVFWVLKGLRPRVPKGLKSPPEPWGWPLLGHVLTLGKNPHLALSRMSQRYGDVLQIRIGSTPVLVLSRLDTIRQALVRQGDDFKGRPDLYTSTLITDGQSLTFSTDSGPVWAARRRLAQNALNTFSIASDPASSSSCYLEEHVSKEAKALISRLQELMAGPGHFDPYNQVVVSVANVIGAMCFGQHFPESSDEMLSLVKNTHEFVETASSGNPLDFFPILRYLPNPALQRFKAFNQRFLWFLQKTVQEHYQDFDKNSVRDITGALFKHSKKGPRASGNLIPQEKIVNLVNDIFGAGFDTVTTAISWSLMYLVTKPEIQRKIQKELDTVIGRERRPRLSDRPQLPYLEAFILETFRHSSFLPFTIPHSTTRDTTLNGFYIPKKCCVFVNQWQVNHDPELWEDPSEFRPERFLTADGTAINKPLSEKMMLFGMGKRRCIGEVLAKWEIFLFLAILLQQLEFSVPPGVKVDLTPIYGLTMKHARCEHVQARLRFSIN
Method: Inhibition of CYP1A2 in liver microsomes (unknown origin) at 40 uM incubated for 10 mins relative to control
Assay type: ADME, Microsome
Endpoint label: inhibition at 10 min, 40 µM
Answer format: number, then unit.

QUERY: Give inhibition at 10 min, 40 µM (CYP1A2 (Homo sapiens, UniProt P05177)) of the following molecule: Cc1nc2c([nH]1)c(=O)n(C)c(=O)n2Cc1ccco1 [FURAFYLLINE]
RESULT: 78%

###

Tested on: Protein deacetylase HDAC6 (Homo sapiens, UniProt Q9UBN7)
Sequence (Q9UBN7 whole entry): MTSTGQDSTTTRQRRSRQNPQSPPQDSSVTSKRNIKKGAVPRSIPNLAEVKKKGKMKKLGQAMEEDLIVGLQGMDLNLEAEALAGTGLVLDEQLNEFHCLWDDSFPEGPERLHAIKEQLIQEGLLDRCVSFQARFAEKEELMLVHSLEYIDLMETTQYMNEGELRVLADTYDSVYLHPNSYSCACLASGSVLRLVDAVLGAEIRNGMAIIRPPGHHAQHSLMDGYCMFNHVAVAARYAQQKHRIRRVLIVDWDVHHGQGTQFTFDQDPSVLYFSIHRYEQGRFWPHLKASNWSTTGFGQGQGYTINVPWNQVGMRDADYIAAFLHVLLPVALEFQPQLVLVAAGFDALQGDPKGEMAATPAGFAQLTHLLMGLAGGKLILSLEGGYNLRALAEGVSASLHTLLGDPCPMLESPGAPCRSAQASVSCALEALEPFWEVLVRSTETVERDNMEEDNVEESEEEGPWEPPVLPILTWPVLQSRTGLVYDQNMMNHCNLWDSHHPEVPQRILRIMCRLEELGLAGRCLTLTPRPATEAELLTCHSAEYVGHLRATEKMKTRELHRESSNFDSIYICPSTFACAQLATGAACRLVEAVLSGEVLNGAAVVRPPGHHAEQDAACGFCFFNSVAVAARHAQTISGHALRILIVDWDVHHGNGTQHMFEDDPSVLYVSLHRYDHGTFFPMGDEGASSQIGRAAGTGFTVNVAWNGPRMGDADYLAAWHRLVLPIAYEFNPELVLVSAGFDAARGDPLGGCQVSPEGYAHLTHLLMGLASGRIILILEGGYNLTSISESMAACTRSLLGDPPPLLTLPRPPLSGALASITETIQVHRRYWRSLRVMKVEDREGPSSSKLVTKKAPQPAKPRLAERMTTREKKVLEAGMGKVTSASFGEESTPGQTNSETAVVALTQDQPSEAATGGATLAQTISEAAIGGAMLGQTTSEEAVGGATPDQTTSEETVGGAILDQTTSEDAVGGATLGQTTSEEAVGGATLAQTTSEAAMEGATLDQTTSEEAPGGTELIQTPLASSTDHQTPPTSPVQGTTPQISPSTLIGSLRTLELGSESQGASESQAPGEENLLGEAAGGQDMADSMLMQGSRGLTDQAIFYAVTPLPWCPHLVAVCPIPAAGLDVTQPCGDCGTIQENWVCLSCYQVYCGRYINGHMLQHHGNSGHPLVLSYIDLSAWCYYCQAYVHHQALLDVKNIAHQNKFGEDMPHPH
Method: Inhibition of HDAC6 (unknown origin)
Endpoint label: IC50 (nM)
One number for each entry, in nM.

QUERY: Could you tell me which IC50 is on file for O=C(/C=C/c1cccc(S(=O)(=O)Nc2ccccc2)c1)NO ?
RESULT: 2600

###

Method: Stability in human liver microsome assessed as intrinsic clearance at 1 uM measured for 60 mins by LC-MS/MS analysis
Type: ADME
Condition context: liver microsomes, read-out: CLH
Endpoint label: microsomal CLint at 1 µM

# annotated cases, reported microsomal CLint at 1 µM shown
COc1ccc(Nc2ncnc3c2ncn3Cc2ccc(C(=O)NO)cc2)cc1
< 6 µL/min/mg
O=C(NO)c1ccc(Cn2cnc3c(Nc4ccc(Br)cc4F)ncnc32)cc1
< 6 µL/min/mg
O=C(NO)c1ccc(Cn2cnc3c(Nc4ccc(F)c(Cl)c4)ncnc32)cc1
< 6 µL/min/mg

Now for another entry.
QUERY: Could you tell me which microsomal CLint at 1 µM is on file for CCN(CC)CCNC(=O)c1c(C)[nH]c(/C=C2\C(=O)Nc3ccc(F)cc32)c1C ?
RESULT: 21 µL/min/mg

###

Kindly state inhibition at 10 min, 10 µM for each of the entries shown.
Tested on: CYP2D6 (Homo sapiens)
Sequence (P10635 whole entry): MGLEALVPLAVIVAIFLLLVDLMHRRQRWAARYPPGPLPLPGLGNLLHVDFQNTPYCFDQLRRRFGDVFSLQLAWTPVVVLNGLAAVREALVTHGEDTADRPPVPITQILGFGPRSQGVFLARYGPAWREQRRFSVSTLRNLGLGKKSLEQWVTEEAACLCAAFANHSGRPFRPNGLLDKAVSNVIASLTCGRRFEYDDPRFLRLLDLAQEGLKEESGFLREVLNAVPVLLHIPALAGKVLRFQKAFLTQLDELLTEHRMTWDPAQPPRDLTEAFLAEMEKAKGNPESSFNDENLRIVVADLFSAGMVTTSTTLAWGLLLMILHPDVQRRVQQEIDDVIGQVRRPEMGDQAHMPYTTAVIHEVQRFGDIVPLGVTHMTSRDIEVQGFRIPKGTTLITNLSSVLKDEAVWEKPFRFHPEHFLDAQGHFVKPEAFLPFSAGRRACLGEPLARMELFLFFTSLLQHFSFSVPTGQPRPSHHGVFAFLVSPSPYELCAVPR
Method: Inhibition of CYP2D6 in liver microsomes (unknown origin) at 10 uM incubated for 10 mins relative to control
Format: ADME, Microsome
Answers are plain numbers, in %.

# annotated cases, reported inhibition at 10 min, 10 µM shown
Cc1nc2c([nH]1)c(=O)n(C)c(=O)n2Cc1ccco1
10
COc1ccc(Nc2ncnc3c2ncn3Cc2ccc(C(=O)NO)cc2)cc1
10
O=C(NO)c1ccc(Cn2cnc3c(Nc4ccc(F)c(Cl)c4)ncnc32)cc1
10
O=C(NO)c1ccc(Cn2cnc3c(Nc4ccc(Br)cc4F)ncnc32)cc1
10
Nc1ccc(S(=O)(=O)Nc2ccnn2-c2ccccc2)cc1
10

Now for another entry.
QUERY: Could you tell me which inhibition at 10 min, 10 µM is on file for C=C[C@H]1C[N@@]2CC[C@H]1C[C@@H]2[C@@H](O)c1ccnc2ccc(OC)cc12 ?
RESULT: 86

###

Tested on: CYP1A2 (Homo sapiens)
Method: Inhibition of CYP1A2 in liver microsomes (unknown origin) at 10 uM incubated for 10 mins relative to control
Format: ADME, Microsome
Endpoint label: inhibition at 10 min, 10 µM
Answer format: number, then unit.

CC(=O)N1CCN(c2ccc(OCC3COC(Cn4ccnc4)(c4ccc(Cl)cc4Cl)O3)cc2)CC1 (stereo unspecified) [KETOCONAZOLE]
10%
O=C(NO)c1ccc(Cn2cnc3c(Nc4ccc(F)c(Cl)c4)ncnc32)cc1
46%
Nc1ccc(S(=O)(=O)Nc2ccnn2-c2ccccc2)cc1 [SULFAPHENAZOLE]
10%
C=C[C@H]1C[N@@]2CC[C@H]1C[C@@H]2[C@@H](O)c1ccnc2ccc(OC)cc12 [QUINIDINE]
10%
O=C(NO)c1ccc(Cn2cnc3c(Nc4ccc(Br)cc4F)ncnc32)cc1
47%

Now for another entry.
QUERY: Could you tell me which inhibition at 10 min, 10 µM is on file for COc1ccc(Nc2ncnc3c2ncn3Cc2ccc(C(=O)NO)cc2)cc1 ?
RESULT: 50%
